condition parameters: 318.15 K; 100 kPa; Liquid; Vibrating tube method
This listing pairs molecules with measured mass density.
Your answer is read as kg/m3, so omit the unit and give the number.

Sample answers from the record:
Ask | Specify reported mass density for the molecule shown: CC1CCCCC1
Reply | 747.59

Ask | Specify reported mass density for the molecule shown: CCCCCCCCCCCCCC(=O)OC [methyl tetradecanoate]
Reply | 848.14

Ask | Specify reported mass density for the molecule shown: CCCCCCCCCC(=O)OC [methyl decanoate]
Reply | 851.74

Proceed to the following item.
Ask | Specify reported mass density for the molecule shown: CCCCCCCCCCCC(=O)OC [methyl dodecanoate]
Reply | 849.69
